Listed here: items and their measured melting point.

Some solved cases for reference:
[2H]C([2H])([2H])OC(=O)[C@H](c1ccccc1Cl)N1CCc2sc(OC(=O)C(C)(C)C)cc2C1 [Compound 10f]; 105.4 to 107.1 °C
[2H]C([2H])([2H])OC(=O)[C@H](c1ccccc1Cl)N1CCc2sc(OC(=O)c3cccnc3)cc2C1 [Compound 10m]; 92.1 to 94.8 °C
[2H]C([2H])([2H])OC(=O)[C@H](c1ccccc1Cl)N1CCc2sc(OC(=O)CCCCCCCCCCC)cc2C1 [Compound 10i]; 35.8 to 37.6 °C

Challenge: Fill blank: measured melting point of the compound Cl.[2H]C([2H])([2H])OC(=O)[C@H](c1ccccc1Cl)N1CCc2sc(OC(=O)C(C)C)cc2C1 [Compound 10d] is ____.
Response given: 146.7 to 149.9 °C

Challenge: What value of melting point has been recorded for this entry: [2H]C([2H])([2H])OC(=O)[C@H](c1ccccc1Cl)N1CCc2sc(OC(=O)CCCCC)cc2C1 [Compound 10g]
Response given: 49.4 to 52.7 °C

Challenge: Please give the measured melting point for this compound: [2H]C([2H])([2H])OC(=O)[C@H](c1ccccc1Cl)N1CCc2sc(OC(=O)C(C)(C)CC)cc2C1 [Compound 10h]
Response given: 99.4 to 100.3 °C

Challenge: # get_value(readout='melting point', item= [2H]C([2H])([2H])OC(=O)[C@H](c1ccccc1Cl)N1CCc2sc(OC(=O)C=Cc3ccccc3)cc2C1 [Compound 10j] )
Response given: 121.7 to 123.1 °C
